Test system: Bacteria
Test: Inhibition of recombinant VIM-1 (unknown origin) using fluorocillin as substrate at 10 uM incubated for 30 mins by fluorescence based assay
Would you mind telling me the reported inhibition of each entry?
Give bare numbers, in %.

Before answering, review these 3 worked examples.
1. Nc1ccc2c([N+](=O)[O-])ccc(O)c2n1 | 37
2. CCNCc1cc([N+](=O)[O-])c2cccnc2c1O | 53
3. O=C(O)c1ccc2cccc(O)c2n1 | 54

Would you mind telling me what inhibition value was observed for Oc1c(Cl)cc(Cl)c2cccnc12 ?
90

* * *

Assignment: determine reported inhibition for the given compounds.
Assay: Inhibition of recombinant NDM-1 (unknown origin) using fluorocillin as substrate at 30 uM incubated for 30 mins by fluorescence based assay
Conditions: Bacteria
Numbers only, in %.

The following compounds have reported results that may help.
1) O=[N+]([O-])c1cc(O)c2ncccc2c1 | 95
2) O=C(O)c1ccc(O)c2ncccc12 | 39

Okay, now this compound:
Quick check: inhibition of Nc1ccc2c([N+](=O)[O-])ccc(O)c2n1 ?
93

* * *

Assignment: determine reported inhibition for the given compounds.
Assay: Inhibition of recombinant NDM-1 (unknown origin) using fluorocillin as substrate at 10 uM incubated for 30 mins by fluorescence based assay
Details: Bacteria

Worked cases, answers included:
1. Cc1ccc2c([N+](=O)[O-])ccc(O)c2n1 | < 20%
2. O=S(=O)(O)c1ccc(O)c2ccccc12 | < 20%
3. N#CCNC(=O)c1ccc2cccc(O)c2n1 | < 20%
4. O=C(O)c1ccc2c([N+](=O)[O-])ccc(O)c2n1 | 95%
5. N#CC1(NC(=O)c2ccc3c([N+](=O)[O-])ccc(O)c3n2)CC1 | < 20%

Working through the 4 compounds below one at a time, give inhibition for each.
1. CN(CC#N)C(=O)c1ccc2c([N+](=O)[O-])cc([N+](=O)[O-])c(O)c2n1
2. Cc1ccc2c(Cl)cc(Cl)c(O)c2n1
3. CC(=O)Nc1ccc([N+](=O)[O-])c2cccnc12
4. N#CCOc1ccc([N+](=O)[O-])c2cccnc12

< 20%
71%
< 20%
< 20%

* * *

Experiment: Inhibition of recombinant NDM-1 (unknown origin) using fluorocillin as substrate at 3 uM incubated for 30 mins by fluorescence based assay
Details: Bacteria
Quantity Name: inhibition

1) N#CCNC(=O)c1ccc2cccc(O)c2n1 | < 20%

Hello, I would appreciate it if you could give inhibition for each entry below.
1. O=C(O)c1ccc([N+](=O)[O-])c2cccnc12
2. Oc1ccc(C(F)(F)F)c2cccnc12
3. O=[N+]([O-])c1cc(O)c2ncccc2c1
4. N#CC1(NC(=O)c2cc([N+](=O)[O-])c3cccnc3c2O)CC1
5. N#CCOc1ccc([N+](=O)[O-])c2cccnc12
6. O=C(O)c1ccc2cccc(O)c2n1

1: < 20%; 2: 13%; 3: < 20%; 4: < 20%; 5: < 20%; 6: 24%

* * *

Provide the reported inhibition of each item.
Experiment: Inhibition of recombinant NDM-1 (unknown origin) using fluorocillin as substrate at 10 uM incubated for 30 mins by fluorescence based assay
Details: Bacteria

Previously resolved entries follow.
1) N#CCNCc1cc([N+](=O)[O-])c2cccnc2c1O | 89%
2) O=C(O)c1ccc([N+](=O)[O-])c2cccnc12 | < 20%
3) CN(CC#N)C(=O)c1ccc2cccc(O)c2n1 | < 20%
4) N#CCNC(=O)c1ccc2c([N+](=O)[O-])ccc(O)c2n1 | < 20%
5) N#Cc1ccc2ccc([N+](=O)[O-])c(O)c2n1 | < 20%
6) O=[N+]([O-])c1ccc(N2CCCC2)c2ncccc12 | < 20%
7) O=[N+]([O-])c1ccc(O)c2ncccc12 [NITROXOLINE] | 81%
8) N#CCN(Cc1ccccc1)C(=O)c1ccc2c([N+](=O)[O-])cc([N+](=O)[O-])c(O)c2n1 | < 20%

Would you mind listing inhibition for each of the following molecules?
1. O=[N+]([O-])c1cc(CNCc2ccccc2)c(O)c2ncccc12
2. O=C(O)c1cc([N+](=O)[O-])c2cccnc2c1O

["23%", "< 20%"]

Requested read-out: inhibition. Entry: Cc1cc(C)c2cccnc2c1O
< 20%

Origin of the recorded values: ChEMBL document CHEMBL5046233
